# Tested on: DU-145
# method: NCI tumour cell line growth inhibition, 48 h
Active and inactive are the calls of the source. Rule as the data show it: active = GI50 up to about 1.1 µM and inactive = higher. Peptide text beside a SMILES is read from it. * marks the point of attachment. Boc = CC(C)(C)OC(=O)*
Classes used: t (active), f (inactive)

compound: c1cc2c(cc1[C@@H]1OC[C@@H]3[C@H]1CO[C@H]3c1ccc3c(c1)OCO3)OCO2
class-name: f
//
compound: CN(Cc1cnc2nc(N)nc(N)c2n1)c1ccc(C(=O)NCCCC(=O)O)cc1
class-name: f
//
compound: O=C1c2nc3n(c2C(=O)c2c1nc1n2CCC1)CCC3
class-name: f
//
compound: O=C(CN1CCOCC1)c1ccc2c(c1)oc(=O)n2CCN1CCCC1
class-name: f
//
compound: C1=Nc2sc3c(c2C2=NCCN12)CCCC3
class-name: f
//
compound: CNC(=O)OCC1=C(COC(=O)NC)C(C)N(c2ccccc2)C1 (stereo not drawn)
class-name: f
//
compound: CC(C)OC(=O)c1ccc(NCc2cc(O)ccc2O)cc1Cl
class-name: f
//
compound: Clc1ccccc1-c1nnc2c(-c3ccccc3)nc3ccccc3n12
class-name: f
//
compound: O=c1[nH]c(=O)n(COCc2ccccc2)c2ccc(Br)cc12
class-name: f
//
compound: O=C(O)c1ccc(C(=O)O)c(C(=O)Nc2ccc3c(c2)C(=O)c2ccccc2-3)c1
class-name: f
//
compound: O=C1N[C@H]2C(=O)c3c(Cl)sc(Cl)c3[C@H]2O1
class-name: f
//
compound: Cc1c(O)c(OC2OC(CO)C(O)C(O)C2O)cc2c1C=C[C@@H]1[C@@]2(C)C(=O)C[C@]2(C)[C@@H]([C@@](C)(O)C(O)/C=C/C(C)(C)O)[C@H](O)C[C@@]12C (stereo partly drawn)
class-name: f
//
compound: Cc1[nH]c2ccccc2c1/C=N/c1ccc(Oc2ccccc2)cc1
class-name: f
//
compound: O=P1(N2CCOCC2)OCCO1
class-name: f
//
compound: COc1ccccc1C1=C2C(=O)N(C)C(c3ccccc3OC)=C2C(=O)N1C
class-name: f
//
compound: CC1(C)c2ccccc2C(=O)C12CCC(=O)CC2
class-name: f
//
compound: CC(C)(C)NCC(O)COc1cccc2[nH]c(C#N)cc12 (stereo not drawn)
class-name: f
//
compound: CCNC(=S)Nc1c(C#N)c2n(c1C(=O)OCC)CCCCC2
class-name: f
//
compound: O=C1N(c2ccccc2)C2(c3ccccc3)CC3CCCC13S2 (stereo not drawn)
class-name: f
//
compound: CC(C)(O)CO/N=C1\C(=C2\C(=O)Nc3ccccc32)Nc2ccccc21
class-name: t
//
compound: COC(=O)c1ccc(NC(=O)O/N=C(\Cl)C(C)C)cc1
class-name: f
//
compound: O=C(O)c1ccc(Nc2ccnc3cc(Cl)ccc23)cc1O
class-name: f
//
compound: Cc1ccc(S(=O)(=O)NN=C2C(C)CC(C(C)(C)C)CC2C)cc1 (stereo not drawn)
class-name: f
//
compound: OC(c1cccnc1)C(F)(F)c1nc2ccccc2o1 (stereo not drawn)
class-name: f
//
compound: O=C1CSC(c2ccccc2O)N1c1nc2cc3sc(N4C(=O)CSC4c4ccccc4O)nc3cc2s1 (stereo not drawn)
class-name: f
//
compound: O=C(NCCCCl)c1c(O)c2ccccc2[nH]c1=O
class-name: f
//
compound: CCOC(=O)CCC(C(=O)OCC)n1nnc2cc(Nc3c(C)[n+]([O-])c4cc(Cl)ccc4[n+]3[O-])ccc21 (stereo not drawn)
class-name: f
//
compound: CCCCCCSc1nc(COC(=O)NC)c(COC(=O)NC)n1C
class-name: f
//
compound: C=C1CC(Cn2ccc(=O)[nH]c2=O)(c2ccc(Cl)cc2)OC1=O (stereo not drawn)
class-name: f
//
compound: O=[N+]([O-])/C(C(Cl)=C(Cl)Cl)=C(\Nc1cccc2cccnc12)Sc1ccccc1
class-name: f
//
compound: COc1ccc(N/N=C2\C3=C(CCC(C)(C)O3)C(=O)c3ccccc32)cc1
class-name: f
//
compound: CSCCC(NC(=O)C(CC(C)C)NC(=O)CNC(=O)OC(C)(C)C)C(=O)N(C)C (stereo not drawn) (Boc-Gly-Leu-Met-NMe2; configuration not given here)
class-name: f
//
compound: COc1cccc(CCCNC(=O)Cc2ccccc2CO)c1
class-name: f
